Experiment: Plasma pharmacokinetics of antibiotics (HPLC)
Assay type: in vivo, Coho salmon (Oncorhynchus kisutch)
Conditions: plasma, ip, 20 mg/kg, i.p. injection
readout type: Cmax (ng/mL)
Enter your answer as a number in ng/mL; do not include the unit.

Query string: Item under review: CS(=O)(=O)c1ccc([C@@H](O)[C@@H](CF)NC(=O)C(Cl)Cl)cc1 . Reported Cmax?
Result string: 7050

* * *

Assay: Plasma pharmacokinetics of antibiotics (HPLC)
Format: in vivo, Coho salmon (Oncorhynchus kisutch)
Conditions: plasma, po, 30 mg/kg, oral in commercial feed
readout type: Tmax (h)
Enter your answer as a number in h; do not include the unit.

Query string: Item under review: CC1CCc2cc(F)cc3c(=O)c(C(=O)O)cn1c23 (stereo not shown) . Reported Tmax?
Result string: 8

* * *

Experiment: Plasma pharmacokinetics of antibiotics (HPLC)
Type: in vivo, Coho salmon (Oncorhynchus kisutch)
Details: plasma, po, 30 mg/kg, oral in commercial feed
readout type: Cmax

Query string: Item under review: CC1CCc2cc(F)cc3c(=O)c(C(=O)O)cn1c23 (stereo not shown) . Reported Cmax?
Result string: 2290 ng/mL

* * *

Experiment: Plasma pharmacokinetics of antibiotics (HPLC)
Type: in vivo, Coho salmon (Oncorhynchus kisutch)
Conditions: plasma, po, 15 mg/kg, oral in Oralject ™ (F2)
readout type: Cmax (ng/mL)
Enter your answer as a number in ng/mL; do not include the unit.

Query string: Item under review: CS(=O)(=O)c1ccc([C@@H](O)[C@@H](CF)NC(=O)C(Cl)Cl)cc1 . Reported Cmax?
Result string: 2150

* * *

Assay: Plasma pharmacokinetics of antibiotics (HPLC)
Type: in vivo, Coho salmon (Oncorhynchus kisutch)
Details: plasma, po, 30 mg/kg, oral in Oralject ™ (F2)
readout type: Cmax

Query string: Item under review: CC1CCc2cc(F)cc3c(=O)c(C(=O)O)cn1c23 (stereo not shown) [Flumequine] . Reported Cmax?
Result string: 0.44 µg/mL

* * *

Experiment: Plasma pharmacokinetics of antibiotics (HPLC)
Assay type: in vivo, Coho salmon (Oncorhynchus kisutch)
Settings: plasma, po, 30 mg/kg, oral in Oralject ™ (F2)
readout type: Tmax (h)
Enter your answer as a number in h; do not include the unit.

Query string: Item under review: CC1CCc2cc(F)cc3c(=O)c(C(=O)O)cn1c23 (stereo not shown) [Flumequine] . Reported Tmax?
Result string: 2

* * *

Test: Plasma pharmacokinetics of antibiotics (HPLC)
Assay type: in vivo, Coho salmon (Oncorhynchus kisutch)
Conditions: plasma, po, 15 mg/kg, oral in commercial feed
readout type: Cmax (ng/mL)
Enter your answer as a number in ng/mL; do not include the unit.

Query string: Item under review: CS(=O)(=O)c1ccc([C@@H](O)[C@@H](CF)NC(=O)C(Cl)Cl)cc1 [Florfenicol] . Reported Cmax?
Result string: 1380

* * *

Assay: Plasma pharmacokinetics of antibiotics (HPLC)
Format: in vivo, Coho salmon (Oncorhynchus kisutch)
Conditions: plasma, po, 30 mg/kg, oral in commercial feed, 30 mg/kg; plasma; read-out: AUC(0-120 h)
readout type: AUC(0-t) (ng·h/mL)
Enter your answer as a number in ng·h/mL; do not include the unit.

Query string: Item under review: CC1CCc2cc(F)cc3c(=O)c(C(=O)O)cn1c23 (stereo not shown) [Flumequine] . Reported AUC(0-t)?
Result string: 16800

* * *

Test: Plasma pharmacokinetics of antibiotics (HPLC)
Type: in vivo, Coho salmon (Oncorhynchus kisutch)
Conditions: plasma, po, 30 mg/kg, oral in Oralject ™ (F2), 30 mg/kg; plasma; read-out: AUC(0-120 h)
readout type: AUC(0-t) (µg·h/mL)
Enter your answer as a number in µg·h/mL; do not include the unit.

Query string: Item under review: CC1CCc2cc(F)cc3c(=O)c(C(=O)O)cn1c23 (stereo not shown) . Reported AUC(0-t)?
Result string: 61.9
